target: SARS-CoV-2 3CLpro (Severe acute respiratory syndrome coronavirus 2, UniProt P0DTD1); assay: biochemical; type: biochemical; settings: 4 h, sheet LOPAC_screen_w_protease; primary screen of LOPAC1280 at 5 µM with protease; replicate 2; read-out: Replicate_2
Counter-ions that a name gives are not always drawn.
Documented inhibition at 5 µM across a set of molecules
Just the number please, in %, no unit attached.

As a guide, the following entries are already answered.
                                   molecule  recorded_result
0  CC(N)C(=O)OC(C)(C)Cc1ccc(Cl)cc1 (stereo not drawn) [Alaproclate hydrochloride]              4.3
1  CCCn1c(=O)c2[nH]c(-c3ccc(OCC(=O)Nc4ccc(C#N)cc4)cc3)nc2n(CCC)c1=O [MRS 1754]             6.08

inhibition at 5 µM lookup needed for CN[C@H](CC(=O)O)C(=O)O [N-Methyl-D-aspartic acid] , thanks. 2.81

Please report the recorded inhibition at 5 µM for CCCCCN(CCCCC)C(=O)C(CCC(=O)O)NC(=O)c1ccc(Cl)c(Cl)c1 (stereo not drawn) [Lorglumide sodium] . 4.4

Could you share which inhibition at 5 µM value was measured for NC(=O)CN1CCCC1=O [Piracetam] ? 1.37

Name the reported inhibition at 5 µM value associated with the molecule CC(CN1c2ccccc2Sc2ccccc21)N(C)C (stereo not drawn) [Promethazine hydrochloride] 5.35

----------
As shown below, each of these compounds has a reported mean value.
molecular target: SARS-CoV-2 3CLpro (Severe acute respiratory syndrome coronavirus 2, UniProt P0DTD1); experiment: biochemical; format: biochemical; set-up: unit not given here; conditions: sheet LOPAC_screen_w_protease; primary screen with protease, 5 µM; mean of two replicates
Give your answer as a number; write no unit.

Item CN(C)c1ccc(/C=C2\C(=O)Nc3ccccc32)cc1 [SU 4312] has what recorded mean? 0.09243

Fill blank: measured mean of the compound CCCN(CCC)C1Cc2cc(OC)c(OC)cc2C1.O=C(O)/C=C\C(=O)O [U-99194A maleate] is ____. -0.07283

Item under review: Cl.NCCNC(=O)c1ccc(Cl)cc1 [Ro 16-6491 hydrochloride] . Reported mean? -0.0598

----------
biological target: SARS-CoV-2 3CLpro (Severe acute respiratory syndrome coronavirus 2, UniProt P0DTD1); test: biochemical; assay type: biochemical; design: unit not given here; settings: sheet LOPAC_screen_w_protease; LOPAC1280 primary screen with protease, 5 µM compound; replicate 2
attribute.measured: Replicate_2
# respond with the number and nothing more

What does the data say about its Replicate_2? Entry: Cn1c(=O)c2[nH]c(-c3ccccc3)nc2n(C)c1=O 7.0953

----------
Below: a set of entries, each annotated with reported Replicate_1 (LOPAC_screen_w_protease).
target: SARS-CoV-2 3CLpro (Severe acute respiratory syndrome coronavirus 2, UniProt P0DTD1); experiment: biochemical; assay type: biochemical; conditions: LOPAC1280 primary screen with protease, 5 µM compound, replicate 1
# print the numeric value only

>>> df
                                   molecule  recorded_result
0  Cl.Cl.NCCC(=O)NCCc1c[nH]cn1 [Carcinine dihydrochloride]         -0.04434

What does the record list as Replicate_1 (LOPAC_screen_w_protease) for CCNC(=O)[C@H]1O[C@@H](n2cnc3c(N)ncnc32)[C@H](O)[C@@H]1O ? 1.565

# Replicate_1 (LOPAC_screen_w_protease) lookup, item Br.CCCN(CCC)C1CCc2ccc(O)cc2C1 (racemic) [(±)-7-Hydroxy-DPAT hydrobromide] 3.951

# input molecule: Br.COc1ccccc1N1CCN(CCCCN2C(=O)c3ccccc3C2=O)CC1 [NAN-190 hydrobromide] ; wanted: its Replicate_1 (LOPAC_screen_w_protease) 4.031

----------
molecular target: SARS-CoV-2 3CLpro (Severe acute respiratory syndrome coronavirus 2); assay: biochemical; assay type: biochemical; settings: LOPAC1280 primary screen with protease, 5 µM compound, replicate 1
This listing pairs compounds with measured Replicate_1 (LOPAC_screen_w_protease).
Please state the value as a number alone, without comment.

Previously resolved entries follow.
compound	Replicate_1 (LOPAC_screen_w_protease)
CNCC(O)c1ccc(O)cc1 (racemic) [(±)-Synephrine]	1.098
OCc1ccc(-c2nn(Cc3ccccc3)c3ccccc23)o1	0.3284
Cc1ccc(OCC(O)C(C)NC(C)C)c2c1CCC2.Cl (stereo not drawn) [ICI 118,551 hydrochloride]	3.391
N#CC(=Cc1c[nH]c2ccccc12)C(=O)c1ccc(O)c(O)c1	2.979

Which Replicate_1 (LOPAC_screen_w_protease) reading was recorded for the compound C[C@]12CC[C@@H](O)C[C@@H]1CC[C@@H]1[C@@H]2CC[C@]2(C)[C@@H](O)CC[C@@H]12 ? 0.2579

Entry C[C@@H](N)[C@H]1CC[C@H](C(=O)Nc2ccncc2)CC1.Cl.Cl [Y-27632 dihydrochloride] : reported Replicate_1 (LOPAC_screen_w_protease) = ? 2.12

----------
Catalogue of Replicate_1 readings, one per entry.
target: SARS-CoV-2 3CLpro (Severe acute respiratory syndrome coronavirus 2); assay: biochemical; type: biochemical; design: unit not given here
Give the figure by itself; no unit, no explanation.

Example entries begin here.
>>> print(df.to_string())
                                   compound  recorded_result
0  O=C(O)/C(=C/c1c(C(=O)O)[nH]c2cc(Cl)cc(Cl)c12)c1ccccc1            2.708
1  C=CC[N+](C)(C)c1ccc(CCC(=O)CCc2ccc([N+](C)(C)CC=C)cc2)cc1.[Br-].[Br-]            2.051

Any idea what Replicate_1 was measured for COc1ccc2c(c1)c(CC(=O)O)c(C)n2C(=O)c1ccc(Cl)cc1 ? 3.273

Report Replicate_1 for COc1cccc(-c2cc(=O)c3ccccc3o2)c1N please. 3.541

What Replicate_1 value was documented for this compound, C1CNCCN1.COc1cc(C(O)CO)ccc1O.COc1cc(C(O)CO)ccc1O (centres unmarked) ? 4.5396

For the compound C[N+](C)(C)CCO.[Br-] [Choline bromide] , what Replicate_1 is on record? 2.262

Please look up its Replicate_1: O=C(O)CN(CCOCCOCCN(CC(=O)O)CC(=O)O)CC(=O)O 4.424

Given the entry CC(C)(C)C1(O)CCN2CC3c4ccccc4CCc4cccc(c43)C2C1.Cl (racemic) [(±)-Butaclamol hydrochloride] , report its measured Replicate_1. 4.433

----------
molecular target: SARS-CoV-2 3CLpro (Severe acute respiratory syndrome coronavirus 2); experiment: biochemical; type: biochemical; set-up: unit not given here; settings: sheet LOPAC_screen_w_protease; LOPAC1280 at 5 µM; replicate 2
attribute.measured: Replicate_2
Format: numeric value only, no unit, no commentary.

molecule	Replicate_2
CC(C)(C)NCC(O)c1cc(O)cc(O)c1.CC(C)(C)NCC(O)c1cc(O)cc(O)c1.O=S(=O)(O)O (stereo not drawn) [Terbutaline hemisulfate]	2.703

Which Replicate_2 is reported for this molecule? C[C@]12CCC(=O)C=C1CC[C@@H]1[C@@H]2[C@@H](O)C[C@@]2(C)[C@H]1CC[C@]2(O)C(=O)COC(=O)CCC(=O)[O-].[Na+] [Hydrocortisone 21-hemisuccinate sodium] 0.4974

----------
mean (LOPAC_screen_w_protease) overview
biological target: SARS-CoV-2 3CLpro (Severe acute respiratory syndrome coronavirus 2, UniProt P0DTD1); assay: biochemical; assay type: biochemical; design: unit not given here; conditions: LOPAC1280 primary screen with protease, 5 µM compound, mean of two replicates
Where a name gives a salt, the structure may show the parent alone.
Just the number, please.

Previously resolved entries follow.
>>> print(df.to_string())
                                   molecule  recorded_result
0  NC/C=C/C(=O)O [(E)-4-amino-2-butenoic acid]            1.558
1  Cl.O=C(Cc1ccc(Cl)c(Cl)c1)N1CCCCC1CN1CCCC1 (stereo not drawn) [BRL 52537 hydrochloride]            1.672
2  C[C@@H](N)[C@H]1CC[C@H](C(=O)Nc2ccncc2)CC1.Cl.Cl [Y-27632 dihydrochloride]            1.325
3  NC(=O)c1cc(N2CC2)c([N+](=O)[O-])cc1[N+](=O)[O-]            1.686

Consider the molecule Cc1ccc([N+](=O)[O-])cc1S(=O)(=O)N(C)C and give its measured mean (LOPAC_screen_w_protease). 1.647

Which mean (LOPAC_screen_w_protease) reading was recorded for the molecule COc1ccccc1N1CCN(CCCCNC(=O)c2ccc3ccccc3c2)CC1 ? 1.323

For the molecule CCN(CC)CCOCCOC(=O)C1(c2ccccc2)CCCC1 [Carbetapentane citrate] , what mean (LOPAC_screen_w_protease) is on record? 1.698

What does the data say about its mean (LOPAC_screen_w_protease)? Entry: CCC(=O)N1CCN(C(=O)c2ccccc2)CC1 1.365

May I ask what mean (LOPAC_screen_w_protease) has been recorded for Nc1nc(OCc2ccccc2)c2nc[nH]c2n1 ? 1.401
